Assay: Solubility measurement (DMSO solution precipitation method)
Type: physicochemical
Details: aqueous buffer, kinetic from dmso stock, McIlvaine buffer pH 4.5, 24 h, read-out: solubility pH 4.5
result_type: solubility at 24 h

Asked: Would you mind telling me what solubility at 24 h value was observed for CCn1c(=O)n([C@@H]2CCOC2)c2nc(-c3onc4c3CCC[C@@]43CCCc4sc(N)c(C#N)c43)nc(O[C@@H](C)[C@@H]3CCCN3C)c21 ?
Given back: > 157 µg/mL

Asked: Would you mind telling me what solubility at 24 h value was observed for C[C@H](Oc1nc(-c2onc3c2CCC[C@@]32CCCc3sc(N)c(C#N)c32)nc2c1n(C)c(=O)n2[C@@H]1CCCOC1)[C@@H]1CCCN1C ?
Given back: > 155 µg/mL

Asked: Would you mind telling me what solubility at 24 h value was observed for CO[C@@H]1C[C@@H]([C@H](C)Oc2nc(-c3onc4c3CCC[C@@]43CCCc4sc(N)c(C#N)c43)nc3c2n(C)c(=O)n3[C@@H]2CCOC2)N(C)C1 ?
Given back: > 157 µg/mL

Asked: Would you mind telling me what solubility at 24 h value was observed for C[C@H](Oc1nc(-c2onc3c2CCC[C@@]32CCCc3sc(N)c(C#N)c32)nc2c1n(C)c(=O)n2[C@H]1CC2CCC1O2)[C@@H]1CCCN1C (stereo partly drawn) ?
Given back: > 155 µg/mL

Asked: Would you mind telling me what solubility at 24 h value was observed for CCn1c(=O)n([C@@H]2CCCOC2)c2nc(-c3onc4c3CCC[C@@]43CCCc4sc(N)c(C#N)c43)nc(OC[C@@]34CCCN3C[C@H](F)C4)c21 ?
Given back: > 163 µg/mL

Asked: Would you mind telling me what solubility at 24 h value was observed for C[C@H](Oc1nc(-c2onc3c2CCC[C@@]32CCCc3sc(N)c(C#N)c32)nc2c1cnn2[C@@H]1CCOC1)[C@@H]1CCCN1C ?
Given back: > 147 µg/mL

----------
Tested on: Ba/F3 cells KRAS G12D
Assay: Ba/F3 proliferation assay (KRAS G12D)
Assay type: cell-based
Conditions: Mus musculus, BaF3, 72 h, AlamarBlue viability
result_type: IC50 (nM)
The answer is to be given in nM; state only the numeric part.

Asked: Please tell me: IC50 of C[C@H](Oc1nc(-c2onc3c2CCC[C@@]32CCCc3sc(N)c(C#N)c32)nc2c1n(C)c(=O)n2[C@@H]1CCOC1)[C@@H]1C[C@@H]2C[C@@H]2N1C [I-28] , system Ba/F3 cells KRAS G12D?
Given back: 53

Asked: Please tell me: IC50 of C[C@H](Oc1nc(-c2noc3c2CCC[C@@]32CCCc3sc(N)c(C#N)c32)nc2c1CCCO[C@]21CCOC1)[C@@H]1CCCN1C [II-10] , system Ba/F3 cells KRAS G12D?
Given back: 22

Asked: Please tell me: IC50 of C[C@H](Oc1nc(-c2onc3c2CCC[C@@]32CCCc3sc(N)c(C#N)c32)nc2c1n(C)c(=O)n2C1COC1)[C@@H]1CCCN1C [I-24] , system Ba/F3 cells KRAS G12D?
Given back: 134

----------
Provide the recorded fraction unbound for the entries that follow.
Assay: Plasma protein binding assay (PPB), equilibrium dialysis
Assay type: in vitro ADME
Details: bovine, 10% FCS in PBS, read-out: PPB 10% FCS (% fu)
The answer should be a number; do not append a unit.

Asked: Would you mind telling me what fraction unbound value was observed for C[C@H](Oc1nc(-c2onc3c2CCC[C@@]32CCCc3sc(N)c(C#N)c32)nc2c1CN(C1COC1)C[C@]21CCOC1)[C@@H]1CCCN1C ?
Given back: 0.3

Asked: Would you mind telling me what fraction unbound value was observed for C[C@H](Oc1nc(-c2onc3c2CCC[C@@]32CCCc3sc(N)c(C#N)c32)nc2c1cnn2[C@@H]1CCOC1)[C@@H]1CCCN1C ?
Given back: 0.11

Asked: Would you mind telling me what fraction unbound value was observed for C[C@H](Oc1nc(-c2onc3c2CCC[C@@]32CCCc3sc(N)c(C#N)c32)nc2c1[nH]c(=O)n2[C@@H]1CCCOC1)[C@@H]1CCCN1C ?
Given back: 0.18

Asked: Would you mind telling me what fraction unbound value was observed for CO[C@@H]1C[C@@H]([C@H](C)Oc2nc(-c3onc4c3CCC[C@@]43CCCc4sc(N)c(C#N)c43)nc3c2n(C)c(=O)n3[C@H]2COC[C@@H](C)C2)N(C)C1 ?
Given back: 0.06

Asked: Would you mind telling me what fraction unbound value was observed for CCn1c(=O)n([C@@H]2CCCOC2)c2nc(-c3onc4c3CCC[C@@]43CCCc4sc(N)c(C#N)c43)nc(O[C@@H](C)C34CCCN3CCC4)c21 ?
Given back: 0.06

Asked: Would you mind telling me what fraction unbound value was observed for C[C@H](Oc1nc(-c2onc3c2CCC[C@@]32CCCc3sc(N)c(C#N)c32)nc2c1N(C)C(=O)CN2[C@@H]1CCOC1)[C@@H]1CCCN1C ?
Given back: 0.13

Asked: Would you mind telling me what fraction unbound value was observed for CO[C@H]1CCN(C)[C@@H]1[C@H](C)Oc1nc(-c2onc3c2CCC[C@@]32CCCc3sc(N)c(C#N)c32)nc2c1n(C)c(=O)n2[C@@H]1CCCOC1 ?
Given back: 0.17

Asked: Would you mind telling me what fraction unbound value was observed for CO[C@@H]1C[C@@H]([C@H](C)Oc2nc(-c3onc4c3CCC[C@@]43CCCc4sc(N)c(C#N)c43)nc3c2n(C)c(=O)n3[C@@]23COC[C@@H]2C3)N(C)C1 ?
Given back: 0.32

Asked: Would you mind telling me what fraction unbound value was observed for C[C@H](Oc1nc(-c2onc3c2CCC[C@@]32CCCc3sc(N)c(C#N)c32)nc2c1n(C)c(=O)n2[C@@H]1CCCOC1)[C@@H]1CCCN1C ?
Given back: 0.18

Asked: Would you mind telling me what fraction unbound value was observed for CO[C@H]1CCN(C)[C@@H]1[C@H](C)Oc1nc(-c2onc3c2CCC[C@@]32CCCc3sc(N)c(C#N)c32)nc2c1n(C)c(=O)n2[C@H]1COC[C@@H](C)C1 ?
Given back: 0.07

Asked: Would you mind telling me what fraction unbound value was observed for C[C@H](Oc1nc(-c2onc3c2CCC[C@@]32CCCc3sc(N)c(C#N)c32)nc2c1n(C)c(=O)n2[C@H]1CO[C@@H](C)C1)[C@@H]1CC[C@H](C)N1C ?
Given back: 0.09

Asked: Would you mind telling me what fraction unbound value was observed for C[C@H](Oc1nc(-c2noc3c2CCC[C@@]32CCCc3sc(N)c(C#N)c32)nc2c1COC[C@@]21CCOC1)[C@@H]1CCCN1C ?
Given back: 0.07

Asked: Would you mind telling me what fraction unbound value was observed for CO[C@H]1CCN(C)[C@@H]1[C@H](C)Oc1nc(-c2onc3c2CCC[C@@]32CCCc3sc(N)c(C#N)c32)nc2c1n(C)c(=O)n2[C@@H]1CCOC1 ?
Given back: 0.22

Asked: Would you mind telling me what fraction unbound value was observed for CO[C@H]1CCN(C)[C@@H]1[C@H](C)Oc1nc(-c2noc3c2CCC[C@@]32CCCc3sc(N)c(C#N)c32)nc2c1CN(C1COC1)C[C@]21CCOC1 ?
Given back: 0.09

Asked: Would you mind telling me what fraction unbound value was observed for Cc1cc2c(O[C@@H](C)[C@@H]3CCCN3C)nc(-c3onc4c3CCC[C@@]43CCCc4sc(N)c(C#N)c43)nc2n1[C@@H]1CCOC1 ?
Given back: 0.09

Asked: Would you mind telling me what fraction unbound value was observed for C[C@H](Oc1nc(-c2noc3c2CCC[C@@]32CCCc3sc(N)c(C#N)c32)nc2c1n(C)c(=O)n2[C@@H]1CCOC1)[C@@H]1CCCN1C ?
Given back: 0.19

Asked: Would you mind telling me what fraction unbound value was observed for CCn1c(=O)n([C@@H]2CCCOC2)c2nc(-c3onc4c3CCC[C@@]43CCCc4sc(N)c(C#N)c43)nc(OC[C@@]34CCCN3C[C@H](F)C4)c21 ?
Given back: 0.02

Asked: Would you mind telling me what fraction unbound value was observed for C[C@H](Oc1nc(-c2onc3c2CCC[C@@]32CCCc3sc(N)c(C#N)c32)nc2c1n(C)c(=O)n2[C@@]12COC[C@@H]1C2)[C@@H]1CCCN1C ?
Given back: 0.39

Asked: Would you mind telling me what fraction unbound value was observed for C[C@H](Oc1nc(-c2onc3c2CCC[C@@]32CCCc3sc(N)c(C#N)c32)nc2c1n(C)c(=O)n2[C@H]1CCCOC1)[C@@H]1CCCN1C ?
Given back: 0.06

Asked: Would you mind telling me what fraction unbound value was observed for C[C@H](Oc1nc(-c2noc3c2CCC[C@@]32CCCc3sc(N)c(C#N)c32)nc2c1CN(c1ncccn1)[C@]21CCOC1)[C@@H]1CCCN1C ?
Given back: 0.02

Asked: Would you mind telling me what fraction unbound value was observed for CO[C@H]1C[C@@H](n2c(=O)n(C)c3c(O[C@@H](C)[C@@H]4CCCN4C)nc(-c4onc5c4CCC[C@@]54CCCc5sc(N)c(C#N)c54)nc32)C1 ?
Given back: 0.09

Asked: Would you mind telling me what fraction unbound value was observed for COCCn1c(=O)n([C@@H]2CCOC2)c2nc(-c3onc4c3CCC[C@@]43CCCc4sc(N)c(C#N)c43)nc(O[C@@H](C)[C@@H]3CCCN3C)c21 ?
Given back: 0.34

Asked: Would you mind telling me what fraction unbound value was observed for CO[C@H]1CCN(C)[C@@H]1[C@H](C)Oc1nc(-c2noc3c2CCC[C@@]32CCCc3sc(N)c(C#N)c32)nc2c1n(C)c(=O)n2[C@@H]1CCOC1 ?
Given back: 0.09

Asked: Would you mind telling me what fraction unbound value was observed for C[C@H](Oc1nc(-c2noc3c2CCC[C@@]32CCCc3sc(N)c(C#N)c32)nc2c1CCCO[C@]21CCOC1)[C@@H]1CCCN1C ?
Given back: 0.28

Asked: Would you mind telling me what fraction unbound value was observed for CO[C@@H]1C[C@@H]([C@H](C)Oc2nc(-c3onc4c3CCC[C@@]43CCCc4sc(N)c(C#N)c43)nc3c2n(C)c(=O)n3[C@@H]2CCOC2)N(C)C1 ?
Given back: 0.11

# credit: patent US20250019385A1
